assay: Tmax in Sprague-Dawley rat at 50 mg/kg, po measured upto 24 hrs by LC-MS/MS analysis; assay type: ADME, organism-based; settings: in vivo
VALUE_TYPE: Tmax (min)
One number for each entry, in min.

Quick one: Tmax of O=C(O)[C@@H](CO)NCc1cc(Cl)c(OCc2cccc(-c3cccc(OCCCN4CCC(O)CC4)c3)c2F)cc1OCc1ccc2nonc2c1 ?
6
